Every entry's value here was drawn from paper PMC3748009.

- subject.of.test: recombinant human AMPK α2β1γ1 (Homo sapiens, UniProt P54619+P54646)
- Sequence (P54646 whole entry): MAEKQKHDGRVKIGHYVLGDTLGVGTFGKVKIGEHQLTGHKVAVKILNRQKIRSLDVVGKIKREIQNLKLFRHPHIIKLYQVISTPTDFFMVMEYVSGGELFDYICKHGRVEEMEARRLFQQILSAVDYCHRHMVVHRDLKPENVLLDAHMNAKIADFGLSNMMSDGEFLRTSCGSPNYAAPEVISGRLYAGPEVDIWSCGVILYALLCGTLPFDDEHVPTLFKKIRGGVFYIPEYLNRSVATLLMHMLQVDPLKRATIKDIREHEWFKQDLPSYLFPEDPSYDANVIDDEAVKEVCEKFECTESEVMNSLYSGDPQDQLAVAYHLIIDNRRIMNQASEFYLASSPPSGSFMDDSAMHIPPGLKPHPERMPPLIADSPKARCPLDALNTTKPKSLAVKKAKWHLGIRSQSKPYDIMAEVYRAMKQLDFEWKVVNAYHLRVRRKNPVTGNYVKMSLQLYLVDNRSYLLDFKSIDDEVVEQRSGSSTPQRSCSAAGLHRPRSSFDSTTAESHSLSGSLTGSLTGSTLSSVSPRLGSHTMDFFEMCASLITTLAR
- Sequence (Q9Y478 whole entry partner): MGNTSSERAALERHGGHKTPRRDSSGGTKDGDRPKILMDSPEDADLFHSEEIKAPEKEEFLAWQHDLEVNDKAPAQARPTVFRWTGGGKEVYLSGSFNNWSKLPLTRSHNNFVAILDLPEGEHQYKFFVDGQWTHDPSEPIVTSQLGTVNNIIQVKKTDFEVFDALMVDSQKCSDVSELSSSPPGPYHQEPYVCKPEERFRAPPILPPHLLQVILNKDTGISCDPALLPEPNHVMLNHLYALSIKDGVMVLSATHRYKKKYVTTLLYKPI
- Sequence (P54619 whole entry): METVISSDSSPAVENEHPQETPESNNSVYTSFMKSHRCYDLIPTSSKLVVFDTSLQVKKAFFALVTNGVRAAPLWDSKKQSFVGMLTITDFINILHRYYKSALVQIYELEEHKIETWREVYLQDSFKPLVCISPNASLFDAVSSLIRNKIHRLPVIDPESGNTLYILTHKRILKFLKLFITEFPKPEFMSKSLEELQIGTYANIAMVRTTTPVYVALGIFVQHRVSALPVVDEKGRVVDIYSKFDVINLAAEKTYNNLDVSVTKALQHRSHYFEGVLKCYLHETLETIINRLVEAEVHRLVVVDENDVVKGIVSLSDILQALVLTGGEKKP
- assay.overview: Scintillation proximity assay (SPA), AMPK activation
- condition.notes: SPA
measure: EC50 (nM)
Use nM as the unit, but write only the number.

stdin: Item Cc1ccc(OCCSc2ncccn2)c(Br)c1 has what recorded EC50?
stdout: 950
